System: BDF1 mice, P388 leukemia ip, median survival T/C
Assay: NCI In Vivo Anticancer Drug Screen. Data for tumor model P388 Leukemia (intraperitoneal) in B6D2F1 (BDF1) mice
Settings: endpoint: median survival time; dose: 12.0 mg/kg/injection; schedule: Q01DX009 (ip); vehicle: saline
Toxic doses and inconclusive results are not listed. How the source made its calls: active means survival T/C of 150% or more; inactive means T/C below 125% in these data.
Outcome codes: t for active, f for inactive

>>> df
                                   compound  qualitative_label
0  [NH-]CC(=O)[N-]CC(=O)O.[NH-]CC(=O)[N-]CC(=O)O.[Ni]                  f
1                Cn1c(O)c(C=N)c(=O)n(C)c1=O                  f
2  CC1(C)N=C(N)N=C(N)N1c1ccc(CCCCc2ccc(S(=O)(=O)F)cc2)cc1                  t
3  CCCCCC(CN(C)C)C(=O)/C=C\c1ccc(Cl)cc1Cl (stereo not given)                  f
4      NCC(O)COc1ccccc1N (stereo not given)                  f

---

Form field: T/C (one value per entry).
Tested on: BDF1 mice, P388 leukemia ip, median survival T/C
Experiment: NCI In Vivo Anticancer Drug Screen. Data for tumor model P388 Leukemia (intraperitoneal) in B6D2F1 (BDF1) mice
Settings: endpoint: median survival time; dose: 400.0 mg/kg/injection; schedule: Q04DX003 (ip); vehicle: Klucel (hydroxypropylcellulose) (HPC); higher = longer survival
Inconclusive results and toxic doses are left out.
Parameter Measured: T/C

In [3]: df
Out[3]:
                                    molecule       measurement
 0  O=C(Nc1ccc(Nc2ccncc2)cc1)c1ccc(Nc2ccnc3ccc([N+](=O)[O-])cc23)cc1   90 % of control
 1                      CCOC(=O)C[Si](C)(C)C  109 % of control
 2             CCOC(=O)C(/C=N/C(N)=O)=C(\C)O   95 % of control
 3  Cc1ccccc1C1c2ccccc2C(=O)c2cccc(C)c21 (configuration not stated)  108 % of control
 4      O=C(Cc1ccc([N+](=O)[O-])cc1)c1ccccc1   91 % of control
 5  CCCC(C1=CC(C)(C)c2ccccc2C1=O)c1ccc(Br)cc1 (configuration not stated)  100 % of control
 6  C/C(=N\Nc1ccc([N+](=O)[O-])cc1[N+](=O)[O-])C(F)(F)F  100 % of control
 7                   Clc1ccc(N=Cc2ccccc2)cc1  100 % of control
 8  COC(=O)C(c1ccccc1)C(Br)C(=O)c1ccccc1 (configuration not stated)   90 % of control
 9  CCCCSCC(N)C(=O)O (configuration not stated)   95 % of control
10  Nc1ccccc1SC1CC(=O)N(c2cccc3ccccc23)C1=O (configuration not stated)   90 % of control
11                     CCCCC(=O)c1ccc(Cl)cc1  100 % of control

---

Tested on: BDF1 mice, P388 leukemia ip, median survival T/C
Test: NCI In Vivo Anticancer Drug Screen. Data for tumor model P388 Leukemia (intraperitoneal) in B6D2F1 (BDF1) mice
Conditions: endpoint: median survival time; dose: 100.0 mg/kg/injection; schedule: Q01DX009 (ip); vehicle: saline with Tween-80
Toxic doses and inconclusive results are not listed. Rule for the calls: active = survival T/C of 150% or more; inactive = T/C below 125% in these data.
Outcome codes: 1 = active, -1 = inactive

>>> df
                                    compound  qualitative_label
 0          O=C1C(=C2CCCCC2)SC(=S)N1c1ccccc1                 -1
 1  CCSC1(SCC)C(=O)OC2=C(CCCC2)C1N1CCOCC1 (stereo not given)                 -1
 2   Cc1cc(N(CCCl)CCCl)ccc1C=Nc1ccccc1C(=O)O                  1
 3                       O/N=C1/CCCc2ccccc21                 -1
 4               N#Cc1c2c(c(O)[nH]c1=O)CCCC2                 -1
 5                          C1CSCCSCCCSCCSC1                 -1
 6  O=C1OP2(c3ccccc3)(OC(=O)c3ccccc32)c2ccccc21                 -1
 7  COc1ccc(C(=O)CC(C#N)c2ccc(OC)c(OC)c2)cc1OC (stereo not given)                 -1
 8  CC1SC(c2ccccc2)N(c2nccs2)C1=O (stereo not given)                 -1
 9  Clc1ccc(CN2CCCN(Cc3ccc(Cl)c(Cl)c3)S2)cc1Cl                 -1
10                  CS(=O)(=O)c1cnc2ccccc2n1                 -1
11  O=C1/C(=C\c2ccc(Cl)cc2Cl)SC(=S)N1Cc1ccco1                 -1
12                          C1CCC2(CC1)OCCO2                 -1
13                   Cc1nn2c(=O)[nH]cnc2c1Cl                 -1
14  O=C(O)CC(NC(=O)OCc1ccccc1)C(=O)OCc1ccccc1 (stereo not given)                 -1
15  COC(=O)C(I)C(OC)c1ccccc1 (stereo not given)                 -1
16    CN(C)c1ccc(/C=C/c2ccnc3ccc(Br)cc23)cc1                 -1
17  O=[N+]([O-])c1ccc(N=Nc2c(O)ccc3ccccc23)cc1                 -1
18             c1ccc(-c2cc(-c3ccccc3)on2)cc1                 -1
19    O=C(NC1CCCCC1)N(C(=O)C(F)(F)F)C1CCCCC1                 -1
20            COc1cc2c3c(c1)/C(=N\N)CCN3CCC2                 -1
21  COC(=O)C(Sc1ccc(Cl)cc1)C1SC(=S)N(Cc2ccccc2)C1=O (stereo not given)                 -1
22    OCC1CSC(c2ccccc2)N1 (stereo not given)                 -1
23  N=Cc1c(O)n(-c2ccccc2)c(=O)n(-c2ccccc2)c1=O                 -1
24            O=C(O)CCC(=O)Nc1ccccc1C(F)(F)F                 -1
25                                CC#CC(=O)O                 -1
26    O=Cc1[nH]c(=S)[nH]c(=O)c1Cc1cccc(Cl)c1                 -1
27  C[C@]12C[C@@H](F)C(=O)C[C@@H]1CC[C@@H]1[C@@H]2CC[C@]2(C)[C@@H](O)CC[C@@H]12                 -1
28               CCCCCCOC(=O)/C=C(/C)OCCCCCC                 -1
29                   CN(C)P(=S)(N(C)C)N1CCC1                 -1
30  CS(=O)CC(O)(c1ccccc1)c1ccccn1 (stereo not given)                 -1
31                       Cc1cc(C)c(C)c(Br)c1                 -1
32  CC(=O)Nc1c(Cl)cc2c(c1Cl)Cc1cc([N+](=O)[O-])ccc1-2                 -1
33           ClCCn1cnc2c(SCc3ccccc3Cl)ncnc21                 -1
34  COCCCNC1=C(C#N)C(=O)NC(c2cccs2)S1 (stereo not given)                 -1
35      O=C(NC(=O)c1c(F)cccc1F)Nc1ccc(Br)cc1                 -1
36  C[CH2][Ge]([CH2]C)[CH2]C.C[CH2][Ge]([CH2]C)[CH2]C.C[CH2][Ge]([CH2]C)[O][Ge]([CH2]C)[CH2]C                 -1
37  Oc1c(Cl)cc(Cl)cc1C=Nc1cc(C(F)(F)F)ccc1NCc1ccccc1                 -1
38   O=C(Nc1cccc2ccccc12)N1c2ccccc2SC12CCCC2                 -1
39  COc1cccc2ccc(CC(O)(c3ccccc3)c3ccccc3)nc12                 -1
40  Cc1ccc(C(SCC(N)C(=O)O)(c2ccccc2)c2ccc(C)cc2)cc1 (stereo not given)                  1
41                           COc1cc(Cl)ccc1C                 -1
42  CC(=O)OCC1OC(N=[N+]=[N-])C(OC(C)=O)C(OC(C)=O)C1OC(C)=O (stereo not given)                 -1
43  N#CC1(NC(Cc2ccccc2)c2ccccc2)CCCCCCCCCCC1 (stereo not given)                 -1
44          CCOC(=O)c1cccc2cccc(C(=O)OCC)c12                 -1
45             c1csc(NC(Nc2nccs2)C2CCCCC2)n1                 -1
46  CC(=O)OCC1OC(n2cnc3c(=S)nc[nH]c32)C(OC(C)=O)C1OC(C)=O (stereo not given)                 -1
47     O=[N+]([O-])c1ccc(/C=N/c2ncc(Br)s2)o1                 -1
48          COc1ccc(CNCCc2ccc(O)c(OC)c2)cc1O                 -1
49       C=CCC(CC)C(=O)Cl (stereo not given)                 -1
